The origin of these recorded values is patent US20250059164A1.

Reported values of bioavailability for individual entries
Test: Rodent pharmacokinetics (rat PK)
Type: in vivo
Settings: po, dosed intravenously or orally by gavage, plasma, read-out: F % (bioavailability)

Worked cases, bioavailability given:
COc1cc(NC(=O)c2cncc(C(F)(F)F)n2)cc2cn([C@H]3CC[C@H](CN4CC[C@@H](c5cccc6c5n(C)c(=O)n6C5CCC(=O)NC5=O)C(F)(F)C4)CC3)nc12 (some centres unmarked) [I-374] :: ≤ 5%
COc1ccc2c(c1N1CC3(CCN(C[C@H]4CC[C@H](c5nc6cc(C(C)(C)O)c(NC(=O)c7cncc(C#N)c7)cc6s5)CC4)CC3(F)F)C1)n(C)c(=O)n2C1CCC(=O)NC1=O (some centres unmarked) [I-412] :: ≤ 5%
Cn1c(=O)n(C2CCC(=O)NC2=O)c2cccc([C@@H]3CCN(C[C@H]4CC[C@H](n5cc6cc(NC(=O)c7csc(C(F)(F)F)n7)ccc6n5)CC4)C[C@H]3F)c21 (some centres unmarked) [I-149] :: ≤ 5%
COc1ccc2c(c1N1CC3(CCN(C[C@H]4CC[C@H](c5nc6cc(C(C)(C)O)c(NC(=O)c7cccc(C(F)(F)F)n7)cc6o5)CC4)CC3(F)F)C1)n(C)c(=O)n2C1CCC(=O)NC1=O (some centres unmarked) [I-415] :: ≤ 5%

Now for another entry.
Prompt: For the compound shown here, Cc1nc(C(=O)Nc2ccc3nn([C@H]4CC[C@H](CN5CC[C@@H](c6cccc7c6n(C)c(=O)n7C6CCC(=O)NC6=O)[C@H](F)C5)CC4)cc3c2)co1 (some centres unmarked) [I-148] , give the reported bioavailability.
Response: ≤ 5%

====

Assay: Rodent pharmacokinetics (rat PK)
Format: in vivo
Conditions: po, dosed intravenously or orally by gavage, plasma, read-out: F % (bioavailability)
Reported values of bioavailability for individual entries

Worked cases, bioavailability given:
Cn1c(=O)n(C2CCC(=O)NC2=O)c2cccc([C@@H]3CCN(C[C@H]4CC[C@H](n5cc6cc(NC(=O)c7cncc(C8CC8)n7)ccc6n5)CC4)C[C@H]3F)c21 (stereo partly shown) [I-311] :: ≤ 5%
Cn1c(=O)n(C2CCC(=O)NC2=O)c2cccc([C@@H]3CCN(C[C@H]4CC[C@H](n5cc6cc(NC(=O)c7nccc(C(F)(F)F)n7)ccc6n5)CC4)C[C@H]3F)c21 (stereo partly shown) [I-195] :: ≤ 5%
Cn1c(=O)n(C2CCC(=O)NC2=O)c2cccc([C@H]3CCN(C[C@H]4CC[C@H](n5cc(NC(=O)c6cnn7ccc(N8C[C@H]9C[C@@H]8CO9)nc67)c(C(F)F)n5)CC4)CC3(F)F)c21 (single isomer, unassigned) [I-332] :: ≤ 5%
O=C1CCC(c2ccc(N3CC(N4CCN([C@H]5CC[C@H](n6cc(NC(=O)c7cnn8ccc(N9C[C@H]%10C[C@@H]9CO%10)nc78)c(C(F)F)n6)CC5)CC4)C3)cc2Cl)C(=O)N1 (single isomer, unassigned) [I-46] :: ≥ 5%
CN(C[C@H]1CC[C@H](n2cc(NC(=O)c3cnn4ccc(N5C[C@H]6C[C@@H]5CO6)nc34)c(C(F)F)n2)CC1)[C@H]1CCN(c2cccc3c2n(C)c(=O)n3C2CCC(=O)NC2=O)C[C@H]1F (single isomer, unassigned) [I-27] :: ≤ 5%

Prompt: For the compound shown here, Cn1c(=O)n(C2CCC(=O)NC2=O)c2cccc(C#CCN3CCN(C[C@H]4CC[C@H](n5cc(NC(=O)c6cnn7ccc(N8C[C@H]9C[C@@H]8CO9)nc67)c(C(F)F)n5)CC4)CC3=O)c21 (stereo partly shown) [I-186] , give the reported bioavailability.
Response: ≤ 5%

Prompt: For the compound shown here, COc1cc2nc([C@H]3CC[C@H](CN(C)[C@@H]4CCN(c5cccc6c5n(C)c(=O)n6C5CCC(=O)NC5=O)C[C@@H]4F)CC3)cn2cc1NC(=O)c1cncc(C(F)(F)F)n1 (single isomer, unassigned) [I-319] , give the reported bioavailability.
Response: ≤ 5%

Prompt: For the compound shown here, Cn1c(=O)n(C2CCC(=O)NC2=O)c2cccc([C@@H]3CCN(C[C@H]4CC[C@H](n5cc6cc(NC(=O)c7cc(C(F)(F)F)ccn7)ccc6n5)CC4)C[C@H]3F)c21 (stereo partly shown) [I-134] , give the reported bioavailability.
Response: ≥ 5%

Prompt: For the compound shown here, Cn1c(=O)n(C2CCC(=O)NC2=O)c2cccc(N3CC4(CCN(C[C@H]5CC[C@H](n6cc7cc(NC(=O)c8cncc(C#N)c8)c(C(C)(C)O)cc7n6)CC5)CC4(F)F)C3)c21 (stereo partly shown) [I-366] , give the reported bioavailability.
Response: ≤ 5%

Prompt: For the compound shown here, COc1cc2nc([C@H]3CC[C@H](CN4CC[C@@H](c5cccc6c5n(C)c(=O)n6C5CCC(=O)NC5=O)C(F)(F)C4)CC3)sc2cc1NC(=O)c1cncc(C#N)c1 (single isomer, unassigned) [I-273] , give the reported bioavailability.
Response: ≤ 5%

====

Reported values of DC50 for individual entries
Target: IRAK4 (Homo sapiens, UniProt Q9NWZ3)
Construct: endogenous in cells; host or cells: OCI-LY10
Sequence (Q9NWZ3 1-460): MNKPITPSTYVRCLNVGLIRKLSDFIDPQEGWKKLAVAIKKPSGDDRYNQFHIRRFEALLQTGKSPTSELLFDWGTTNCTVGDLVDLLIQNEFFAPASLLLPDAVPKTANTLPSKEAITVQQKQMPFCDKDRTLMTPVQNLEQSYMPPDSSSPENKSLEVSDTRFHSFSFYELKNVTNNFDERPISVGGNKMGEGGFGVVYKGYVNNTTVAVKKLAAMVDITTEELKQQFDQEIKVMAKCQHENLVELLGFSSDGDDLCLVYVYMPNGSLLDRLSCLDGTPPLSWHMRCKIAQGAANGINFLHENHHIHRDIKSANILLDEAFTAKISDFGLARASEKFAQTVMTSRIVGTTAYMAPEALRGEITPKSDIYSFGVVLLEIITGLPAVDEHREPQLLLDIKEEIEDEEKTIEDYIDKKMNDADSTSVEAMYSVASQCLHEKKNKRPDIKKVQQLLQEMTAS
Experiment: IRAK4 MSD degradation in OCI-LY10
Format: cell-based
Conditions: OCI-LY10 cells, 24 hrs, Meso Scale Discovery

Worked cases, DC50 given:
COc1cc2nn([C@H]3CC[C@H](CN4CCC5(CCN(c6cccc7c6c(C)nn7C6CCC(=O)NC6=O)CC5)C(F)(F)C4)CC3)cc2cc1NC(=O)c1cncc(C#N)c1 (some centres unmarked) :: 10 to 100 nM
COc1cc2nn([C@H]3CC[C@H](CN4CC[C@@H](c5cccc6c5c(C)nn6C5CCC(=O)NC5=O)[C@H](F)C4)CC3)cc2cc1NC(=O)c1cncc(C#N)c1 (single isomer, unassigned) :: < 10 nM
Cn1nc(C2CCC(=O)NC2=O)c2cccc([C@H]3CCN(C[C@H]4CC[C@H](n5cc6cc(NC(=O)c7cncc(C(F)(F)F)n7)ccc6n5)CC4)CC3(F)F)c21 (single isomer, unassigned) :: < 10 nM
Cn1cc(Cl)c(C(=O)Nc2ccc3nn([C@H]4CC[C@H](CN5CC[C@@H](c6cccc7c6n(C)c(=O)n7C6CCC(=O)NC6=O)[C@H](F)C5)CC4)cc3c2)n1 (some centres unmarked) :: > 200 nM

Now for another entry.
Prompt: For the compound shown here, Cn1c(=O)n(C2CCC(=O)NC2=O)c2cccc(N3CCN(C[C@H]4CC[C@H](n5cc6cc(NC(=O)c7cncc(C(F)(F)F)n7)ccc6n5)CC4)C[C@H]3C(F)(F)F)c21 (single isomer, unassigned) , give the reported DC50.
Response: 10 to 100 nM

====

Reported values of bioavailability for individual entries
Test: Rodent pharmacokinetics (rat PK)
Assay type: in vivo
Conditions: po, dosed intravenously or orally by gavage, plasma, read-out: F % (bioavailability)
Protocol: All studies related to handling, care, and treatment of rats in the study were performed according to the guidelines approved by the Institutional Animal Care and Use Committee (IACUC). All rats had access to food and water ad libitum. Rats were dosed intravenously or orally by gavage. Whole blood was collected from the jugular vein immediately prior to dosing and at 5 (intravenously administered drugs only), 15, and 30 min and 1, 2, 4, 8, and 24 h after drug administration. […]

Worked cases, bioavailability given:
COc1cc2nn([C@H]3CC[C@H](CN4CCC5(CCN(c6cccc7c6n(C)c(=O)n7C6CCC(=O)NC6=O)CC5)C(F)(F)C4)CC3)cc2cc1C(=O)Nc1cccc(C(F)(F)F)n1 (some centres unmarked) :: ≤ 5%
Cc1cc(C(=O)Nc2ccc3nn([C@H]4CC[C@H](CN5CC[C@@H](c6cccc7c6n(C)c(=O)n7C6CCC(=O)NC6=O)[C@H](F)C5)CC4)cc3c2)nc(C(F)(F)F)c1 (some centres unmarked) :: ≥ 5%
CN(C[C@H]1CC[C@H](c2nc3cc(C(C)(C)O)c(NC(=O)c4cccc(C(F)(F)F)c4)cc3s2)CC1)[C@@H]1CCN(c2cccc3c2n(C)c(=O)n3C2CCC(=O)NC2=O)C[C@H]1F (single isomer, unassigned) :: ≥ 5%
Cn1c(=O)n(C2CCC(=O)NC2=O)c2cccc([C@@H]3CCN(C[C@H]4CC[C@H](c5nc6cc(C(C)(C)O)c(NC(=O)c7cncc(C(F)(F)F)c7)cc6s5)CC4)C[C@H]3F)c21 (some centres unmarked) :: ≥ 5%

Now for another entry.
Prompt: For the compound shown here, Cn1c(=O)n(C2CCC(=O)NC2=O)c2cccc([C@@H]3CCN(C[C@H]4CC[C@H](c5nc6cc(C(C)(C)O)c(NC(=O)c7ccnc(C(F)(F)F)n7)cc6s5)CC4)C[C@H]3F)c21 (some centres unmarked) , give the reported bioavailability.
Response: ≥ 5%
